Where do these numbers come from? They come from patent US20210032365A1.

System Under Test: T1, human C1s (human, UniProt P09871 16-688)
T1 construct: also called hC1s; serum-derived human C1s (CompTech)
T1 sequence: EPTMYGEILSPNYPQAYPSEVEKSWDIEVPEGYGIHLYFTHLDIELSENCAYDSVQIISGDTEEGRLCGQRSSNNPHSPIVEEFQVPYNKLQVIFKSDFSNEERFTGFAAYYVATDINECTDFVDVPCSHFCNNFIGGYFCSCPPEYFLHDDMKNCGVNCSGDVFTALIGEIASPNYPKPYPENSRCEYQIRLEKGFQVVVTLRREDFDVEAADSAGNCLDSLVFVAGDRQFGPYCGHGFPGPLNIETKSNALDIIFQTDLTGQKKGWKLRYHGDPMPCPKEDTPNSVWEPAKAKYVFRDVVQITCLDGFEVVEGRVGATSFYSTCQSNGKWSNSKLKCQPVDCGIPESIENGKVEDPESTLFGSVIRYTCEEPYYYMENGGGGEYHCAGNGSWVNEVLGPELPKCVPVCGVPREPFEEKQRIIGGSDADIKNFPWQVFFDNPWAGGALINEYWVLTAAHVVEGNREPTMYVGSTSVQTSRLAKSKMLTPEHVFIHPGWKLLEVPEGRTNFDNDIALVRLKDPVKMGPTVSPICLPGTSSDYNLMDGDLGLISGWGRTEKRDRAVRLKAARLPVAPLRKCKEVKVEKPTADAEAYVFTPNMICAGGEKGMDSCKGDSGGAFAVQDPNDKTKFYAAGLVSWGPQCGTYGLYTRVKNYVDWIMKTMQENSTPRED
Assay Explanation: SPR, Ab captured; pH 7.4, 1.2 mM Ca
Experimental Readout: koff (s⁻¹)
One number for each entry, in s⁻¹.

Previously resolved entries follow.
| Binder | koff [s⁻¹] |
| --- | --- |
| C1_IPN92H0194-SG4GK/IPN93L0024-SK1 (antibody, human IgG4 S228P, kappa, name in Kabat numbering, V domains shown, also called IPN92H0194/IPN93L0024) VH: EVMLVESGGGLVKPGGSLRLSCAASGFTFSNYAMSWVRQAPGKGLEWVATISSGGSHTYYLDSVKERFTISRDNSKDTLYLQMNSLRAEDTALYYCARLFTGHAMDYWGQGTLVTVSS VL: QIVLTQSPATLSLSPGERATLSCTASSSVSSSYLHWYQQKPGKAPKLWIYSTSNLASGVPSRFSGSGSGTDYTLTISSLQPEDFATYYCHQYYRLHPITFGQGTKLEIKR | 0.000468 |
| C1_IPN92H0231-SG4GK/IPN93L0024-SK1 (antibody, human IgG4 S228P, kappa, name in Kabat numbering, V domains shown, also called IPN92H0231/IPN93L0024) VH: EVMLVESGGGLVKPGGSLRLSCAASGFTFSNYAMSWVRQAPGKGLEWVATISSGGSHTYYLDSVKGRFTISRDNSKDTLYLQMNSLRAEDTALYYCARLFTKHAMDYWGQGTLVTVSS VL: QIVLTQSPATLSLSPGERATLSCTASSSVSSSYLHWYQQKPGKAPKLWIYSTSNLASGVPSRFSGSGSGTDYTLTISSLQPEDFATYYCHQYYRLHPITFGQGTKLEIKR | 0.000577 |

For the next question, use this binder.
GET /values?readout=koff&item= C1_IPN92H0282-SG4GK/IPN93L0024-SK1 (antibody, human IgG4 S228P, kappa, name in Kabat numbering, V domains shown, also called IPN92H0282/IPN93L0024) VH: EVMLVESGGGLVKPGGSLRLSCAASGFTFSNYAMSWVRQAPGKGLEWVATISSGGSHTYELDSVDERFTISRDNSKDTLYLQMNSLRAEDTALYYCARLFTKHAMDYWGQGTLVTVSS VL: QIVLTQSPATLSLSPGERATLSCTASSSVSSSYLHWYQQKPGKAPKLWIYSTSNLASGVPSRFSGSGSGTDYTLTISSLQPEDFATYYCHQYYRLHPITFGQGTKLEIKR
0.000632
